# Lookup of reported Activity, +100 nM BP, DF-25000004 keyed by entry
# Test system: T1, IL-18 binding protein (IL-18BP) (UniProt O95998 31-194); also: unit not given here
# T1 sequence (looked up): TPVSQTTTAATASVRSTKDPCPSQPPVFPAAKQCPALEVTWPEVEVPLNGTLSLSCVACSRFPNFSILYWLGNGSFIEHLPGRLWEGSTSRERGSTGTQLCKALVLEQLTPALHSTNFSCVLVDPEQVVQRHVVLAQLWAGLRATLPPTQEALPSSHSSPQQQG
# Experiment: cell-based or functional assay

Binder	Result
IL-18 variant E6G, D54A, S55K, T63S, N91K, Q114R (ligand) YFGKLGSKLSVIRNLNDQVLFIDQGNRPLFEDMTDSDMRDNAPRTIFIISMYKAKQPRGMAVSISVKSEKISTLSSENKIISFKEMNPPDKIKDTKSDIIFFQRSVPGHDNKMRFESSSYEGYFLASEKERDLFKLILKKEDELGDRSIMFTVQNED	0.49
IL-18 variant G3Q, E6D, K53S, D54I, S55E, T63S, N91S, R104Q (ligand) YFQKLDSKLSVIRNLNDQVLFIDQGNRPLFEDMTDSDMRDNAPRTIFIISMYSIEQPRGMAVSISVKSEKISTLSSENKIISFKEMNPPDSIKDTKSDIIFFQQSVPGHDNKMQFESSSYEGYFLASEKERDLFKLILKKEDELGDRSIMFTVQNED	0.11
IL-18 variant G3P, E6H, N91L (ligand) YFPKLHSKLSVIRNLNDQVLFIDQGNRPLFEDMTDSDMRDNAPRTIFIISMYKDSQPRGMAVTISVKSEKISTLSSENKIISFKEMNPPDLIKDTKSDIIFFQRSVPGHDNKMQFESSSYEGYFLASEKERDLFKLILKKEDELGDRSIMFTVQNED	0.33
IL-18 variant G3P, E6V, K53A, D54W, S55P, T63S, N91L, R104K, Q154R (ligand) YFPKLVSKLSVIRNLNDQVLFIDQGNRPLFEDMTDSDMRDNAPRTIFIISMYAWPQPRGMAVSISVKSEKISTLSSENKIISFKEMNPPDLIKDTKSDIIFFQKSVPGHDNKMQFESSSYEGYFLASEKERDLFKLILKKEDELGDRSIMFTVRNED	0.09
IL-18 variant G3L, E6Q, T63S, N91L, R104T (ligand) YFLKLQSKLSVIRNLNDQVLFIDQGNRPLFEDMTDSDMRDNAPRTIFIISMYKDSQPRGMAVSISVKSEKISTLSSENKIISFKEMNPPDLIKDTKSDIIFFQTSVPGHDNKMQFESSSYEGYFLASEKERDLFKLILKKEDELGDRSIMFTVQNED	0.46

Asked: Requested field: Activity, +100 nM BP, DF-25000004. Item: IL-18 variant G3L, E6S, D54T, T63S, N91Y, R104Q (ligand) YFLKLSSKLSVIRNLNDQVLFIDQGNRPLFEDMTDSDMRDNAPRTIFIISMYKTSQPRGMAVSISVKSEKISTLSSENKIISFKEMNPPDYIKDTKSDIIFFQQSVPGHDNKMQFESSSYEGYFLASEKERDLFKLILKKEDELGDRSIMFTVQNED
Given back: 1.44

Asked: And IL-18 variant G3H, E6Q, K53N, D54S, S55P, T63A, N91I, R104S (ligand) YFHKLQSKLSVIRNLNDQVLFIDQGNRPLFEDMTDSDMRDNAPRTIFIISMYNSPQPRGMAVAISVKSEKISTLSSENKIISFKEMNPPDIIKDTKSDIIFFQSSVPGHDNKMQFESSSYEGYFLASEKERDLFKLILKKEDELGDRSIMFTVQNED ?
Given back: 0.08
